Exercise: state measured inhibition of growth at 16 µg/mL for each of the compounds provided.
- System: Candida albicans
- experimental protocol: Growth inhibition of Candida albicans ATCC 90028 at 16 ug/ml incubated for 18 hrs at 35 degC by broth microdilution method relative to control
- Format: functional
- settings: ATCC 90028, 18 h, read-out: GI
One number for each entry, in %.

Task item: Looking for the measured inhibition of growth at 16 µg/mL of CC(Cn1cnc2c1c(=O)n(C)c(=O)n2C)OC(=O)N1c2ccccc2C=Cc2ccccc21 (stereo unspecified) , can you help?
Reply: 100

Task item: Looking for the measured inhibition of growth at 16 µg/mL of CC(Cn1cnc2c1c(=O)n(C)c(=O)n2C)OCc1cn(CCCn2nc3c(Br)c(Br)c(Br)c(Br)c3n2)nn1 (stereo unspecified) , can you help?
Reply: 100

Task item: Looking for the measured inhibition of growth at 16 µg/mL of CC(Cn1cnc2c1c(=O)n(C)c(=O)n2C)OC(=O)C(c1ccccc1)c1ccccc1 (stereo unspecified) , can you help?
Reply: 99.9

For the 3 compounds below, give their inhibition of growth at 16 µg/mL values.
1. CC(Cn1cnc2c1c(=O)n(C)c(=O)n2C)OC(=O)CC(=O)c1ccccc1 (stereo unspecified)
2. COC(C(=O)OC(C)Cn1cnc2c1c(=O)n(C)c(=O)n2C)c1ccc(C(C)(C)C)cc1 (stereo unspecified)
3. CC(Cn1cnc2c1c(=O)n(C)c(=O)n2C)OC(=O)N1c2ccccc2Sc2ccccc21 (stereo unspecified)

Reply:
1: 99.7; 2: 99.8; 3: 100
